Tested on: HEK293T
Test protocol: median enrichment of reporter reads in eGFP-reduced (low/intermediate) vs eGFP-high sorted cells (eGFP-extension fusion abundance) (ratio); higher = stronger loss of eGFP-fusion protein abundance (more destabilising extension)
Use yes when the recorded median enrichment is no lower than 3; use no when it is lower.

{"Substance": "QNRIEQNRIE [PCSK5]", "Experimental system": "HEK293T", "Discrete label": "no"}
{"Substance": "QDTVNSSSKILACKHPLKFKRGKIKYNEF [ANKRD30BL]", "Experimental system": "HEK293T", "Discrete label": "no"}
{"Substance": "ESPLFLPTLQGPHSPYPSVQCTREETLCL [IDH3B]", "Experimental system": "HEK293T", "Discrete label": "yes"}
{"Substance": "CGILGDSPREELGC [CEP85]", "Experimental system": "HEK293T", "Discrete label": "no"}
{"Substance": "YTKYLKMGIILI [ST8SIA6]", "Experimental system": "HEK293T", "Discrete label": "yes"}

Exercise: Form field: median enrichment at least 3? Entry: WARTSPGTAGGPPPPPSHSVTPGPSGAGWRPRSPLLRSPRS [NPB]
Key: yes

Exercise: Form field: median enrichment at least 3? Entry: GVWLSHGIPGKGLTQ [PTPA]
Key: no

Exercise: Form field: median enrichment at least 3? Entry: WPV [HNRNPUL1]
Key: no

Exercise: Form field: median enrichment at least 3? Entry: LVARALGVLLEAPRASRIASQLPGQPTLLQPLTRTPVIRTGAPVPWSPPWAHVLTQAQQ [OVOL1]
Key: yes

Exercise: Form field: median enrichment at least 3? Entry: RGLLALTLQPTLAVWPSPGSFPAPLPLFPVLLNSPSWRVQALGMGGTRPHSFHRALRPDTADQPHSAQEAASGVGAQRGTAAS [BAP1]
Key: no

Exercise: Form field: median enrichment at least 3? Entry: YGRIMACLSPFLLQIKFSTHSFLLQIKFSTHSFFNTVL [OR2AG2]
Key: yes

----------
System: HEK293T
Test protocol: median enrichment of reporter reads in eGFP-reduced (low/intermediate) vs eGFP-high sorted cells (eGFP-extension fusion abundance) (ratio); higher = stronger loss of eGFP-fusion protein abundance (more destabilising extension)
median enrichment values for the substances below.
// no unit string in output, number only

Known results for substances:
{"Substance": "CIYTAKKNYECMEFFKKKYNALLQRTLGKKPYVKVMTVK [ZNF140]", "Readout value": 22.2}
{"Substance": "RMKSTASE [SERPINI2]", "Readout value": 0.64}
{"Substance": "CRL [ACADSB]", "Readout value": 4.42}
{"Substance": "SRFCHVNVSLSGLQLRRKRRKT [SMIM11A]", "Readout value": 5.41}
{"Substance": "EETTHPEPQHCLTLGTRDPTEMFWRAGGFPQSPPSSSPSNQSCV [SERPINA6]", "Readout value": 0.705}

Exercise: Give the measured median enrichment of YSQPQLMPSQSQPPVTPSQSQPRVTPSQSQPHVTPYRSKSGKQKQSVPIPKTVSRKGTLKK [ADAM29] .
Key: 0.413

----------
Tested on: HEK293T;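 further: lentiviral eGFP-IRES-mCherry reporter pool sorted by FACS 96 h post-transduction, gated on mCherry-high cells, Illumina read counts normalized per million, median across four biological replicates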
Test protocol: median enrichment of reporter reads in eGFP-reduced (low/intermediate) vs eGFP-high sorted cells (eGFP-extension fusion abundance) (ratio); higher = stronger loss of eGFP-fusion protein abundance (more destabilising extension)
Our labelling divides records by median enrichment into ranges: lower level (below 2), middle level (2 to below 6), upper level (6 or more)

Exercise: Entry WLVTEDEDNSITKLF [CD58] belongs to which category?
Key: upper level
